assayed-system: Human Notch3-Gal4-VP16 (human)
test-method-notes: cell-based or functional assay
Recorded % inhibition, Jagged1 co-culture Notch3 reporter gene assay by entry
Give just the numeric value; % need not be written.

Field: example entries. Status: answers known.
20345 (antibody, human IgG1, kappa, V domains shown) VH: QVQLVQSGAEVKKPGSSVKVSCKASGGTFSSYTISWVRQAPGQGLEWMGWIKPKLGMAHYAQKFQGRVTITADESTSTAYMELSSLRSEDTAVYYCARGSFWFGYWGQGTLVTVSS VL: DIQMTQSPSSLSASVGDRVTITCRASQGINNYLNWYQQKPGKAPKLLIYDASKLQSGVPSRFSGSGSGTDFTLTISSLQPEDFATYYCQQYLQYPMTFGQGTKVEIKR    -88
12229 (antibody, human IgG1, lambda, V domains shown) VH: QVQLVESGGGLVKPGGSLRLSCAASGFTFSSYTMNWVRQAPGKGLEWVGRIKTKTNGGTTDYAAPVKGRFTISRDDSKNTLYLQMNSLKTEDTAVYYCARERSRAGSIFDPWGQGTLVTVSS VL: DIVLTQPPSVSGAPGQRVTISCSGSSSNIGFNYVSWYQQLPGTAPKLLIYYNNQRPSGVPDRFSGSKSGTSASLAITGLQAEDEADYYCSTWTGTSESHVFGGGTKLTVLG    77
12215 (antibody, human IgG1, kappa, V domains shown, also called MOR 12215) VH: QVQLVESGGGLVKPGGSLRLSCAASGFTFSTYVMHWVRQAPGKGLEWVGRIRSNTYGGITDYAAPVKGRFTISRDDSKNTLYLQMNSLKTEDTAVYYCARAEARYRDVWGQGTLVTVSS VL: DIQMTQSPSSLSASVGDRVTITCRASQSISSHLNWYQQKPGKAPKLLIYAASNLQSGVPSRFSGSGSGTDFTLTISSLQPEDFATYYCQQDYHTPFTFGQGTKVEIKR    -5
20337 (antibody, human IgG1, kappa, V domains shown) VH: QVQLVESGGGLVKPGGSLRLSCAASGFTFSTYVMHWVRQAPGKGLEWVGRIRANAYGGAADYAAPVKGRFTISRDDSKNTLYLQMNSLKTEDTAVYYCARAEARYRDVWGQGTLVTVSS VL: DIQMTQSPSSLSASVGDRVTITCRASQSISSHLNWYQQKPGKAPKLLIYAASNLQSGVPSRFSGSGSGTDFTLTISSLQPEDFATYYCQQDYHTPFTFGQGTKVEIKR    60
12225 (antibody, human IgG1, kappa, V domains shown, also called MOR 12225) VH: QVQLVQSGAEVKKPGSSVKVSCKASGGTFSSYTISWVRQAPGQGLEWMGWIKPAFGTANYAQKFQGRVTITADESTSTAYMELSSLRSEDTAVYYCARGSFWFGYWGQGTLVTVSS VL: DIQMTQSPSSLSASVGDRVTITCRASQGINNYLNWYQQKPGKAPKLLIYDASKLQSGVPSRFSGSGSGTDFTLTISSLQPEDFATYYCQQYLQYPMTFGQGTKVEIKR    -165
20351 (antibody, human IgG1, kappa, V domains shown) VH: QVQLVQSGAEVKKPGSSVKVSCKASGGTFSSYTISWVRQAPGQGLEWMGWIKPRYGAAMYAQKFQGRVTITADESTSTAYMELSSLRSEDTAVYYCARGSFWFGYWGQGTLVTVSS VL: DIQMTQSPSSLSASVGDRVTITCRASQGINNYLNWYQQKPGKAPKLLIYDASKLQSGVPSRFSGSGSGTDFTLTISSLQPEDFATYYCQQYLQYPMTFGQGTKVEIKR    -50

Quick one: % inhibition, Jagged1 co-culture Notch3 reporter gene assay of 12981 (antibody, human IgG1, kappa, V domains shown, also called MOR 12981) VH: QVQLVQSGAEVKKPGSSVKVSCKASGGTFRTYAMHWVRQAPGQGLEWMGGIIPIFGIANYAQKFQGRVTITADESTSTAYMELSSLRSEDTAVYYCARDDYSTYAFAYWGQGTLVTVSS VL: DIQMTQSPSSLSASVGDRVTITCRASQSIASYLAWYQQKPGKAPKLLIYDASNLQSGVPSRFSGSGSGTDFTLTISSLQPEDFATYYCQQAYKTPYTFGQGTKVEIKR ? 56

Source of measurements: patent US20180009889A1
